System: KM12 colon
ASSAY COMMENT: NCI tumour cell line growth inhibition, 48 h
Hi there, I'd appreciate the recorded TGI for every entry that follows.
Give bare numbers, in µM.

{"COMPOUND": "O=C(CC1(O)C(=O)Nc2c(Cl)cc(Cl)cc21)c1ccc2ccccc2c1 (stereo not given)", "TGI / µM": 18.8}

Moving on to another compound below.
**Q:** Find TGI (KM12 colon) for the entry CC(=C(C(=O)O)C(=O)O)c1cc(-c2cccs2)cc(-c2ccc(Cl)cc2)c1O
**A:** 24.2

====

Test system: OVCAR-3 ovarian
ASSAY COMMENT: NCI tumour cell line growth inhibition, 48 h
Give TGI for every item shown.

{"COMPOUND": "C/C(=N/NC(=S)N1CCCC1)c1cccc(/C(C)=N\\NC(=S)N2CCCC2)n1", "TGI": "2.63 µM"}

Provide reported TGI for each item, in the same order as listed.
1. O=Cc1ccc2c(c1)CC1(C2)Cc2ccc(C=O)cc2C1
2. COC1/C=C\OC2(C)Oc3c(C)c(O)c4c(O)c(c(CN(C)C)c(O)c4c3C2=O)NC(=O)/C(C)=C\C=C/C(C)C(O)C(C)C(O)C(C)C(OC(C)=O)C1C (stereo not drawn)
3. COC(=O)C1=CC2OC1(C)C1(CC1)C2=O (stereo not drawn)
4. O=C(/C=C/c1cccs1)c1ccc(C(=O)/C=C/c2cccs2)cc1
5. CCOC(=O)C1C(c2ccc([N+](=O)[O-])cc2)NC(c2ccc([N+](=O)[O-])cc2)C(C(=O)OC)S1(=O)=O (stereo not drawn)
6. COC(=O)/C(=C/CC(N=C(c1ccccc1)c1ccccc1)C(=O)OC)N=C(c1ccccc1)c1ccccc1 (stereo not drawn)
7. Cc1ccc(S(=O)(=O)N/N=C(\C(=O)Nc2cccc([N+](=O)[O-])c2)c2nc3ccc([N+](=O)[O-])cc3[nH]c2=O)cc1

**A:**
1: 34.1 µM; 2: > 100 µM; 3: 31.2 µM; 4: > 100 µM; 5: > 100 µM; 6: > 100 µM; 7: > 100 µM
